- Study System: binding of HCV-E2 to CD81 on Molt4 T cells (Hepacivirus hominis (Hepatitis C virus))
- Sequence (P27958 384-715): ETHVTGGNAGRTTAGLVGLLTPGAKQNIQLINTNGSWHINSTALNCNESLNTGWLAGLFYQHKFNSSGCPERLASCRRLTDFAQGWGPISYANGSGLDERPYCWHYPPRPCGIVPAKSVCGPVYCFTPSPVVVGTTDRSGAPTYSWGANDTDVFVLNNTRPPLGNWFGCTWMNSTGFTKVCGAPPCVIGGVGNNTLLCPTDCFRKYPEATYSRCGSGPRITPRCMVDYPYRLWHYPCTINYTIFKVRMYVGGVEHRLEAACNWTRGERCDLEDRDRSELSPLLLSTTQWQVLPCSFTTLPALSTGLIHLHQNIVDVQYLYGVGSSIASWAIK
- Sequence (P60033 whole entry, further chain): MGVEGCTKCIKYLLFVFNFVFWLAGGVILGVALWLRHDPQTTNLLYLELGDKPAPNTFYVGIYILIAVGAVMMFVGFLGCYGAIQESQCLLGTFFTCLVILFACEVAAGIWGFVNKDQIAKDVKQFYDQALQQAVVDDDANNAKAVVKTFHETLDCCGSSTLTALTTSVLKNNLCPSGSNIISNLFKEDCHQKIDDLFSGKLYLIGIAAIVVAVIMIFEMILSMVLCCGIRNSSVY
pIC50: −log10 of the molar value.
Assay Metric: pIC50

IN: Which pIC50 value belongs to CCN(CCN(CC)C(=O)c1nc[nH]c1C(=O)N[C@H](C(=O)OCc1ccccc1)C(C)C)C(=O)c1nc[nH]c1C(=O)N[C@H](C(=O)OCc1ccccc1)C(C)C [Compound 19] ?
OUT: ~4.35
